Provide the reported IC50 of each item.
- target.desc: Isocitrate dehydrogenase [NADP] cytoplasmic (Homo sapiens, UniProt O75874, R132H)
- Sequence (O75874 2-414 R132H limits assumed): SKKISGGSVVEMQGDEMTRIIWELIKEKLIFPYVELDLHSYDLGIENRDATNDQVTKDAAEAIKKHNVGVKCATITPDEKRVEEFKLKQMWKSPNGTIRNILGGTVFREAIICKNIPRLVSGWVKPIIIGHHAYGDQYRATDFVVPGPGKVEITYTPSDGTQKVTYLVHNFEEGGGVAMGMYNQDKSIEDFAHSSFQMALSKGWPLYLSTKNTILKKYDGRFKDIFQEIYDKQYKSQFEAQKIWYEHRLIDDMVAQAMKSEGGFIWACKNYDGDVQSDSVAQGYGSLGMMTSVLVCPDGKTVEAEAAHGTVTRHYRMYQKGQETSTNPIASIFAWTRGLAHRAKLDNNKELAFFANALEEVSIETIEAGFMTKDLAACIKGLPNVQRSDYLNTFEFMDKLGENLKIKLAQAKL
- test.method.notes: Inhibition of IDH1 (unknown origin) R132H mutant using alpha-KG as substrate after 60 mins in presence of NADPH by resazurin dye-based fluorescence assay
Kindly write the number and append the unit.

Guide cases for IC50, answers given:
smiles.text | target.desc | IC50
C[C@H](F)[C@H]1COC(=O)N1c1ccnc(NC2(c3cn(-c4cccc(C(F)(F)F)c4)cn3)CC2)n1 | Isocitrate dehydrogenase [NADP] cytoplasmic (Homo sapiens, UniProt O75874, R132H) | 32 nM
Cc1c(C2(Nc3nccc(N4C(=O)OC[C@@H]4[C@H](C)F)n3)CC2)ncn1-c1cccc(C(F)(F)F)c1 | Isocitrate dehydrogenase [NADP] cytoplasmic (Homo sapiens, UniProt O75874, R132H) | 56 nM
C[C@H](F)[C@H]1COC(=O)N1c1ccnc(NC2(c3ncn(-c4cccc(C(F)(F)F)c4)c3C#N)CC2)n1 | Isocitrate dehydrogenase [NADP] cytoplasmic (Homo sapiens, UniProt O75874, R132H) | 85 nM
C[C@H](F)[C@H]1COC(=O)N1c1ccnc(NC2(c3cn(-c4cccc(Cl)c4)cn3)CC2)n1 | Isocitrate dehydrogenase [NADP] cytoplasmic (Homo sapiens, UniProt O75874, R132H) | 42 nM
C[C@H](F)[C@H]1COC(=O)N1c1ccnc(NC2(c3cn(-c4ccnc(C(F)(F)F)c4)cn3)CC2)n1 | Isocitrate dehydrogenase [NADP] cytoplasmic (Homo sapiens, UniProt O75874, R132H) | 220 nM
C[C@H](F)[C@H]1COC(=O)N1c1nc(NC2(c3cn(-c4ccc(F)c(Cl)c4)cn3)CC2)ncc1F | Isocitrate dehydrogenase [NADP] cytoplasmic (Homo sapiens, UniProt O75874, R132H) | 35 nM

Record IC50 per entry; entries follow.
1. C[C@H](F)[C@H]1COC(=O)N1c1ccnc(NC2(c3ncn(-c4cccc(C(F)(F)F)c4)n3)CC2)n1
2. C[C@H](F)[C@H]1COC(=O)N1c1ccnc(NC2(c3cn(-c4cccc(C(F)(F)F)n4)cn3)CC2)n1

["831 nM", "266 nM"]

###

- test.method.notes: Oral bioavailability in CD-1 mouse at 5 mg/kg administered via gavage by mass spectrometric analysis
- Assay type: ADME, organism-based
- experimental.context: in vivo
measurement.label: bioavailability (%)
Give bare numbers, in %.

smiles.text | measurement.unit | endpoint.result
C[C@H](F)[C@H]1COC(=O)N1c1ccnc(NC2(c3cn(-c4ccc(F)c(Cl)c4)cn3)CC2)n1 | % | 20

Now turn to the next molecule.
Requested read-out: bioavailability. Entry: `C[C@H](F)[C@H]1COC(=O)N1c1nc(NC2(c3cn(-c4ccc(F)c(Cl)c4)cn3)CC2)ncc1F`
12

###

- target.desc: Isocitrate dehydrogenase [NADP] cytoplasmic (Homo sapiens, UniProt O75874, R132H)
- test.method.notes: Inhibition of IDH1 (unknown origin) R132H mutant using alpha-KG as substrate after 60 mins in presence of NADPH by resazurin dye-based fluorescence assay
Give measured IC50 for each item. Keep answers brief.
Give bare numbers, in nM.

smiles.text | measurement.unit | IC50
C[C@H](F)[C@H]1COC(=O)N1c1ccnc(NC2(c3cn(-c4ccc(Cl)cc4)cn3)CC2)n1 | nM | 54
C[C@H](F)[C@H]1COC(=O)N1c1ccnc(NC2(c3cn(-c4cc(F)cc(Cl)c4)cn3)CC2)n1 | nM | 27
C[C@H](F)[C@H]1COC(=O)N1c1ccnc(NC2(c3cn(-c4ccc(C(F)(F)F)cc4)cn3)CC2)n1 | nM | 65
C[C@H](F)[C@H]1COC(=O)N1c1cc(Cl)nc(NC2(c3cn(-c4ccc(F)c(Cl)c4)cn3)CC2)n1 | nM | 32
C[C@H](F)[C@H]1COC(=O)N1c1ccnc(NC2(c3cn(-c4cc(Cl)cc(Cl)c4)cn3)CC2)n1 | nM | 36
C[C@H](F)[C@H]1COC(=O)N1c1ccnc(NC2(c3cn(-c4cc(C(F)(F)F)ccn4)cn3)CC2)n1 | nM | 250
C[C@H](F)[C@H]1COC(=O)N1c1ccnc(NC2(c3cn(-c4ccccc4C(F)(F)F)cn3)CC2)n1 | nM | 112
C[C@H](F)[C@H]1COC(=O)N1c1ccnc(NC2(c3ncn(-c4cccc(C(F)(F)F)c4)c3Cl)CC2)n1 | nM | 41
C[C@H](F)[C@H]1COC(=O)N1c1ccnc(NC2(c3cn(-c4cncc(C(F)(F)F)c4)cn3)CC2)n1 | nM | 152
C[C@H](F)[C@H]1COC(=O)N1c1ccnc(NC2(c3cn(-c4ccc(F)c(Cl)c4)cn3)CC2)n1 | nM | 25

Could you tell me IC50 for each of these compounds? They are listed below.
1. CC(F)(F)[C@H]1COC(=O)N1c1ccnc(NC2(c3cn(-c4ccc(F)c(Cl)c4)cn3)CC2)n1
2. C[C@H](F)[C@H]1COC(=O)N1c1ccnc(NC2(c3cn(-c4ccc(F)c(Cl)c4)cn3)CCC2)n1

[721, 40]
